From: ChEMBL document CHEMBL1201862

tested on: XF498; assay: NCI tumour cell line growth inhibition, 48 h
Calls of active or inactive are those of the source. No stated cut-off is given here; in the data, active = GI50 up to about 1.1 µM and inactive = higher.
Endpoint label: GI50

What does the data say about its GI50? Entry: "CCc1nc(N)nc(N)c1-c1ccc(Cl)c(N=[N+]=[N-])c1"
31 µM (inactive)

Follow-up item: "CCN(CC)c1cccc2c1/C(=N/O)CCCC2"
> 100 µM (inactive)

Follow-up item: "O=C1C=CC(=O)c2c(Cl)ccc(O)c21"
17.5 µM (inactive)

Follow-up item: "Cc1cc(C)nc(/C(=N\NC(N)=O)C(=O)Nc2nc3ccc(C)cc3s2)c1"
> 100 µM (inactive)

Follow-up item: "CCN(CC)c1c(C(=O)/C=C/c2ccccc2)c(-c2ccccc2)nn(C)c1=O"
11.2 µM (inactive)

Follow-up item: O=C1CCC2(c3ccccc3)Nc3ccccc3N12 (stereo unspecified)
> 100 µM (inactive)

###

Kindly state GI50 for each of the entries shown.
tested on: HOP-92; assay: NCI tumour cell line growth inhibition, 48 h
Activity calls are given as the source filed them. No stated cut-off is given here; in the data, active = GI50 up to about 1.1 µM and inactive = higher. Where a SMILES comes first, the peptide text is derived from it. [ ]: non-standard residue; d: D form. The star is where a group is joined. ξ: configuration not given here. X38 = O=C(OCc1ccccc1)[C@@H]1CCC[C@H]1N*; Fmoc = O=C(OCC1c2ccccc2-c2ccccc21)*; ξW = NC(Cc1c[nH]c2ccccc12)C(=O)O; ξF = NC(Cc1ccccc1)C(=O)O; Boc = CC(C)(C)OC(=O)*; ξK = NCCCCC(N)C(=O)O; ξT = CC(O)C(N)C(=O)O; tBu = CC(C)(C)*

What does the data say about its GI50? Entry: C=CCCN1CCc2c([nH]c3ccccc23)C1C(=O)O (stereo not drawn)
> 100 µM (inactive)

Follow-up item: "CCN(CC)c1c(C(=O)/C=C/c2ccccc2)c(-c2ccccc2)nn(C)c1=O"
45.1 µM (inactive)

Follow-up item: COC(=O)C(C(=O)C(=O)Nc1ccc(Br)cc1)c1nc2ccc(Cl)cc2nc1O (stereo not drawn)
> 100 µM (inactive)

Follow-up item: CC(OC(C)(C)C)C(NC(=O)C(CCCCNC(=O)OC(C)(C)C)NC(=O)C(Cc1c[nH]c2ccccc12)NC(=O)C(Cc1ccccc1)NC(=O)OCC1c2ccccc2-c2ccccc21)C(=O)NC(Cc1ccccc1)C(=O)N[C@@H]1CCC[C@H]1C(=O)OCc1ccccc1 (stereo partly drawn) (Fmoc-[ξF][ξW][ξK](Boc)[ξT](tBu)[ξF]-X38)
> 100 µM (inactive)

Follow-up item: "CCO/C(=N/S(=O)(=O)C(F)(F)F)N(C(C)C)C(C)C"
> 100 µM (inactive)

Follow-up item: "C[C@]12CC[C@H](O)CC1=CC[C@@H]1[C@@H]2CC[C@]2(C)C(=N/O)/C(=C/c3ccc([N+](=O)[O-])cc3)C[C@@H]12"
3.29 µM (inactive)

Follow-up item: COC(=O)C1=C(OC(=O)/C(=C/c2ccccc2)c2ccc(Cl)cc2)C(C(=O)OC)[C@@]2(O)[C@@H](C(=O)OC)[C@H](C)C[C@@H]1[C@@H]2C(=O)OC (stereo partly drawn)
29.1 µM (inactive)

Follow-up item: "O=c1[nH]c2cc(C(F)(F)F)ccc2nc1CBr"
2.79 µM (inactive)

Follow-up item: "CC1CC2C3CCC4=CC(=O)C=CC4(C)C3(F)C(O)CC2(C)C1(O)C(=O)CO.Cc1cc(NS(=O)(=O)c2ccc(/N=N\c3cc(/N=N/c4ccc(S(=O)(=O)Nc5cc(C)nc(C)n5)cc4)c(OC(=O)C(Cl)Cl)c4cccc(NC(=O)C(Cl)Cl)c34)cc2)nc(C)n1"
32.5 µM (inactive)

Follow-up item: "COC(=O)/N=C(\NC(=O)OC)Nc1ccc(Oc2ccccc2)cc1NC=O"
24.3 µM (inactive)

Follow-up item: OCC12C3C4C5C3C1C5C42 (stereo not drawn)
> 100 µM (inactive)

Follow-up item: O=C(OC1CC(n2cc(F)c(=O)[nH]c2=O)OC1CSC(=O)c1ccccc1)c1ccccc1 (stereo not drawn)
22.9 µM (inactive)

Follow-up item: CCC(C)C(=O)OCC(=O)c1ccc(-c2ccccc2)cc1 (stereo not drawn)
> 100 µM (inactive)

Follow-up item: "O=C(CCN1CCCC1)Nc1ccc2sc3ccccc3c(=O)c2n1"
18.1 µM (inactive)

Follow-up item: COc1cc2c(c(O)c1OC)CC1CCC(=O)N1C2c1cccc2ccccc12 (stereo not drawn)
14.1 µM (inactive)

Follow-up item: O=C1CCC2(c3ccccc3)Nc3ccccc3N12 (stereo not drawn)
> 100 µM (inactive)

Follow-up item: CC(CCc1ccccc1)NCC(O)n1c(/N=N/N(C)C)nc2c1c(=O)n(C)c(=O)n2C (stereo not drawn)
> 100 µM (inactive)

Follow-up item: "NNC(=O)C(=O)NN=C(C(Cl)(Cl)CO)C(Cl)(Cl)CO"
33.4 µM (inactive)

###

system: IGROV-1; test: NCI tumour cell line growth inhibition, 48 h
Activity calls are given as the source filed them. No stated cut-off is given here; in the data, active = GI50 up to about 1.1 µM and inactive = higher.
Endpoint label: GI50

Give the reported GI50 for CC(CCc1ccccc1)NCC(O)n1c(/N=N/N(C)C)nc2c1c(=O)n(C)c(=O)n2C (configuration not stated) (system: IGROV-1).
> 100 µM (inactive)

Follow-up item: CC(=O)OC1CC2Oc3ccc(C)cc3C(C)(O2)C1=O (configuration not stated)
> 100 µM (inactive)

Follow-up item: "COc1ccc(/N=C(C)/C(C)=N/c2ccc(OC)cc2)cc1"
> 100 µM (inactive)

Follow-up item: "Cc1c(/C=N/NC(=S)Nc2ccc([N+](=O)[O-])cc2)c(=O)n(-c2ccccc2)n1C"
12.5 µM (inactive)

Follow-up item: "N#C/C(=C\c1cc(O)cc(O)c1)C(N)=O"
> 100 µM (inactive)

Follow-up item: C=C1C(=O)OC2CC1CCC1(C)OC1CCC(C)=CCCC2(C)O (configuration not stated)
7.18 µM (inactive)

Follow-up item: "COCCOc1cc(C)cc(/C=C(C)/C=C/C2=C(C)CCCC2(C)C)n1"
> 100 µM (inactive)

Follow-up item: CC(C)C1OC(/C=C/c2ccccc2)OCC1(C)C (configuration not stated)
40.1 µM (inactive)

Follow-up item: COC(=O)c1ccccc1C1CN=NC12Cc1c(C)ccc(C)c1C2=O (configuration not stated)
> 100 µM (inactive)

Follow-up item: "CC(C)c1cccc(C(C)C)c1NC(=O)/C(Cc1nc2ccc(Cl)cc2nc1O)=N\NC(=O)C[N+](C)(C)C"
> 100 µM (inactive)

Follow-up item: COC1(OC)CCC2C1C1CCC(OC)(OC)C21 (configuration not stated)
> 50 µM (inactive)

Follow-up item: "O=C(c1c(F)c(F)c(F)c(F)c1F)c1c(F)c(F)c(F)c(F)c1F"
1.3 µM (inactive)

Follow-up item: "O=C1C=CC(=O)c2c(Cl)ccc(O)c21"
14.6 µM (inactive)

Follow-up item: "CC(C)(C)C1=CC(=NNC(=S)NCc2ccccc2)C=C(C(C)(C)C)C1=O"
> 100 µM (inactive)

Follow-up item: "CC(=O)NNc1nc(C)c(C(=O)NNC(=O)C(=O)Nc2ccc([N+](=O)[O-])cc2C#N)s1"
> 100 µM (inactive)

Follow-up item: "C=CC[C@@H]1C=C[C@@H](C(=O)OC)n2c(=O)n(-c3ccccc3)c(=O)n21"
> 100 µM (inactive)

Follow-up item: CC12CCc3ccccc3C1=Nc1ccccc12 (configuration not stated)
71.1 µM (inactive)

Follow-up item: NC(=S)c1cccc(C2Nc3ccccc3O2)c1 (configuration not stated)
> 100 µM (inactive)

Follow-up item: "CC(C)(C)c1cc(OCc2nnc3sc(Cc4ccccc4)nn23)c(Cl)cc1OCc1nnc2sc(Cc3ccccc3)nn12"
22 µM (inactive)

Follow-up item: "Cn1c2ccccc2c(=O)c2c(O)cc3c(c21)C=CC1(CCCC1)O3"
61.7 µM (inactive)

Follow-up item: "O=C(N/N=C/c1c(-c2ccccc2)no[n+]1[O-])N1CCOCC1"
> 100 µM (inactive)

Follow-up item: "O=S(=O)(O)c1ccc2c(/N=N/c3cccc4ccccc34)c(O)ccc2c1"
> 100 µM (inactive)

###

system: SK-MEL-5; test: NCI tumour cell line growth inhibition, 48 h
Calls of active or inactive are those of the source. Rule as the data show it: active = GI50 up to about 1.1 µM and inactive = higher.
Kindly state GI50 for each of the entries shown.

What does the data say about its GI50? Entry: COC12CCC(C(C(=O)c3ccccc3)=C1C(=O)c1ccccc1)C(O)C2 (centres undefined)
> 100 µM (inactive)

Follow-up item: "O=C(/C=C/c1cccs1)c1cccc(C(=O)/C=C/c2cccs2)n1"
> 100 µM (inactive)

Follow-up item: "CC[C@H](O)[C@H](C)C=C1SCCCS1"
> 100 µM (inactive)

Follow-up item: C[C@]12CCC(=O)C=C1CC[C@@H]1C2CC[C@]2(C)Nc3c(cnn3-c3ccccc3)CC12 (some centres undefined)
> 100 µM (inactive)

Follow-up item: "Clc1ccc(Nc2nc(Cl)c3nc[nH]c3n2)cc1Cl"
20.1 µM (inactive)

Follow-up item: "CN(C)c1nc2oc(-c3ccccc3)c(-c3ccccc3)c2c2nnnn12"
> 100 µM (inactive)

Follow-up item: CC1NC(=O)C(C)C(c2ccccc2)N(N=O)C1c1ccccc1 (centres undefined)
> 71.3 µM (inactive)

Follow-up item: "O=C(O)C[C@@H]1[C@@H](O)[C@@H](O)CN2C(=O)c3ccccc3[C@H]12"
> 100 µM (inactive)

Follow-up item: "CC1CC2C3CCC4=CC(=O)C=CC4(C)C3(F)C(O)CC2(C)C1(O)C(=O)CO.Cc1cc(NS(=O)(=O)c2ccc(/N=N\c3cc(/N=N/c4ccc(S(=O)(=O)Nc5cc(C)nc(C)n5)cc4)c(OC(=O)C(Cl)Cl)c4cccc(NC(=O)C(Cl)Cl)c34)cc2)nc(C)n1"
2.97 µM (inactive)
